- Tested on: P aeruginosa
- ASSAY_PROTOCOL: MIC by broth microdilution, P aeruginosa isolates
- Format: cell-based, Pseudomonas aeruginosa
- APPLIED_CONDITIONS: strain AG220 Pseudomonas aeruginosa ATCC27853; read-out: MIC AG220 P. aerugin
Where a name gives a salt, the structure may show the parent alone.
READOUT_TYPE: MIC

# example entries with known answers
>  <COMPOUND>
CCCNC1C(OC2C(N)CC(N)C(O)C2OC2OC(CO)C(OC3OC(CN)C(O)C(O)C3N)C2O)OC(CO)C(O)C1O (stereo not drawn) [Compound 128, 2′-N-Propyl-paromomycin acetate salt]

>  <RESULT>
> 64 µg/mL

$$$$
>  <COMPOUND>
NCC1OC(OC2C(CO)OC(OC3C(O)C(N)CC(N)C3OC3OC(CN)C(O)C(O)C3O)C2O)C(N)C(O)C1O (stereo not drawn) [Compound 119]

>  <RESULT>
> 64 µg/mL

$$$$

Could you now look at the following compound, please?
Challenge: Give its MIC value. Item: CCC[C@H]1C[C@H](N)[C@@H](O[C@@H]2C(N)C[C@@H](N)C(O)[C@H]2O[C@@H]2O[C@H](CNC=O)[C@H](O[C@H]3OC(CN)[C@@H](O)C(O)C3N)C2O)OC1CO (stereo partly drawn) [Compound 190]
Response given: > 64 µg/mL

* * *

- System: E coli carrying specific resistance determinants
- ASSAY_PROTOCOL: MIC by broth microdilution, E coli carrying specific resistance determinants
- Assay type: cell-based
- APPLIED_CONDITIONS: E. coli strain pH421, APH(3)-I
READOUT_TYPE: MIC pH421 APH(3)-I

>  <COMPOUND>
NC[C@@H]1O[C@H](O[C@H]2[C@@H](O)[C@H](O[C@@H]3[C@@H](O)[C@H](N)C[C@H](N)[C@H]3O[C@H]3O[C@H](CN)[C@@H](O)[C@H](O)[C@H]3N)O[C@@H]2CO)[C@H](N)[C@@H](O)[C@@H]1O [neomycin, Neomycin B, reference compound]

>  <MIC pH421 APH(3)-I>
>128 μg/ml

$$$$
>  <COMPOUND>
NCC1OC(OC2C(CO)OC(OC3C(O)C(N)CC(N)C3OC3OC4C(O)CCOC4C(O)C3N)C2O)C(N)C(O)C1O (stereo not shown)

>  <MIC pH421 APH(3)-I>
>128 μg/ml

$$$$
>  <COMPOUND>
CCCC(O)C1OC(OC2C(N)CC(N)C(O)C2OC2OC(CO)C(OC3OC(CN)C(O)C(O)C3N)C2O)C(N)C(O)C1O (stereo not shown) [DC143]

>  <MIC pH421 APH(3)-I>
>128 μg/ml

$$$$

Could you now look at the following compound, please?
Challenge: Give its MIC pH421 APH(3)-I value. Item: CC(O)C1OC(OC2C(N)CC(N)C(O)C2OC2OC(CO)C(OC3OC(CN)C(O)C(O)C3N)C2O)C(N)C(O)C1O (stereo not shown)
Response given: >32 μg/ml

* * *

- Test system: E coli wild type
- ASSAY_PROTOCOL: MIC by broth microdilution, wild type E coli
- Assay type: cell-based
- APPLIED_CONDITIONS: Escherichia coli, engineered strain pH430 WT; Table 2 (Example 4); read-out: MIC pH430 E. coli WT
Where a name gives a salt, the structure may show the parent alone.
READOUT_TYPE: MIC

# example entries with known answers
>  <COMPOUND>
CCC[C@@H]1C(CO)O[C@H](O[C@@H]2C(N)C[C@@H](N)C(O)[C@H]2O[C@@H]2O[C@H](CO)[C@H](O[C@H]3OC(CN)[C@@H](O)C(O)C3N)C2O)[C@@H](N)C1O (some centres unmarked)

>  <MIC>
0.5 µg/mL

$$$$
>  <COMPOUND>
CC(=O)NC[C@H]1O[C@@H](O[C@@H]2C(O)[C@H](N)CC(N)[C@H]2O[C@H]2OC(CO)[C@@H](O)[C@H](O)C2N)C(O)[C@H]1O[C@H]1O[C@@H](CN)[C@@H](O)C(O)C1N (some centres unmarked)

>  <MIC>
8 to 16 µg/mL

$$$$
>  <COMPOUND>
NC[C@@H]1O[C@H](O[C@@H]2C(O)[C@H](O[C@@H]3C(O)[C@H](N)CC(N)[C@H]3O[C@H]3OC(CO)[C@@H](O)[C@H](O)C3N)O[C@@H]2CNC=O)C(N)C(O)[C@@H]1O (some centres unmarked) [Compound 137, acetate salt]

>  <MIC>
1 to 2 µg/mL

$$$$
>  <COMPOUND>
NCC1OC(OC2C(CNC=O)OC(OC3C(O)C(N)CC(N)C3OC3OC(CO)C(O)CC3N)C2O)C(N)C(O)C1O (centres unmarked)

>  <MIC>
2 µg/mL

$$$$

Could you now look at the following compound, please?
Challenge: Give its MIC value. Item: CC(=O)NC[C@H]1O[C@@H](O[C@@H]2C(O)[C@H](N)CC(N)[C@H]2O[C@H]2OC(CN)[C@@H](O)[C@H](O)C2N)C(O)[C@H]1O (some centres unmarked)
Response given: 32 µg/mL

Values compiled from patent US11466044B2.
